Parameter 'readout' = IC50; parameter 'system' = MMP-7 (Homo sapiens).
Sequence (P09237 95-267): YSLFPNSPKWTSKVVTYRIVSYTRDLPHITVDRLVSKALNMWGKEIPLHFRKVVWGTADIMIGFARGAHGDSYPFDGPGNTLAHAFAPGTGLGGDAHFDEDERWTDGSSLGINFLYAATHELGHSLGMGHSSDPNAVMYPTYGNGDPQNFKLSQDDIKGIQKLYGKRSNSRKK

- Cpd smiles: "CC(C)[C@H](C(=O)O)N(CCNC(=O)c1cccc(C(=O)NCCN([C@@H](C(=O)O)C(C)C)S(=O)(=O)c2ccc(-c3ccccc3)cc2)c1)S(=O)(=O)c1ccc(-c2ccccc2)cc1"
  IC50: "> 10 µM"
- Cpd smiles: "CC(C)[C@H](C(=O)O)N(CCNC(=O)c1ccccc1)S(=O)(=O)c1ccc(-c2ccccc2)cc1"
  IC50: "> 10 µM"

* * *

Catalogue of pIC50 values
# Tested target: recombinant human MMP-9 trimers (Homo sapiens, UniProt P14780)
# Construct: made in house; host or cells: Sf9 insect cells
# Sequence (P14780 107-707 limits assumed): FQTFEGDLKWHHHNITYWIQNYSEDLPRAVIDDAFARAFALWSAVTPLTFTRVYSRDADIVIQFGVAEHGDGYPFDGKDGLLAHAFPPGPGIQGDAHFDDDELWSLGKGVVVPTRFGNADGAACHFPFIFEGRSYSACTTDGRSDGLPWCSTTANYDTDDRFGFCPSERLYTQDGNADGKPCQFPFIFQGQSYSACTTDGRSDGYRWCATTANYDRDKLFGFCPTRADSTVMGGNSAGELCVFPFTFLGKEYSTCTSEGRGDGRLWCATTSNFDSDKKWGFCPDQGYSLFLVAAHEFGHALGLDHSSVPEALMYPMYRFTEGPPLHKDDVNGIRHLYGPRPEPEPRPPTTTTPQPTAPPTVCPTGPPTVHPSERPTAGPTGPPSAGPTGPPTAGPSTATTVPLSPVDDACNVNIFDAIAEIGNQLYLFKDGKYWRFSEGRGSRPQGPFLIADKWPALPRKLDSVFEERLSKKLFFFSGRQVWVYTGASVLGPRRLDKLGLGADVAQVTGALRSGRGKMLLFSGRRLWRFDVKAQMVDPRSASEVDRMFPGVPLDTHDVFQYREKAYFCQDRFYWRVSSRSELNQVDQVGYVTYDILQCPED
# Assay details: Gelatin degradation assay, recombinant MMP-9 trimers
# Assay type: biochemical
# Condition context: recombinant human MMP-9 (Sf9) tri; gelatin degradation
pIC50: −log10 of the molar value.

- Cpd smiles: "CC(C)[C@H](C(=O)O)N(CCNC(=O)c1cccc(C(=O)NCCN([C@@H](C(=O)O)C(C)C)S(=O)(=O)c2ccc(-c3ccccc3)cc2)c1)S(=O)(=O)c1ccc(-c2ccccc2)cc1"
  pIC50: 9.74
- Cpd smiles: "CC(C)[C@H](C(=O)O)N(CCNC(=O)c1ccccc1)S(=O)(=O)c1ccc(-c2ccccc2)cc1"
  pIC50: 5.65

* * *

# Tested target: MMP-8/neutrophil collagenase (Homo sapiens, UniProt P22894)
# Sequence (P22894 101-467): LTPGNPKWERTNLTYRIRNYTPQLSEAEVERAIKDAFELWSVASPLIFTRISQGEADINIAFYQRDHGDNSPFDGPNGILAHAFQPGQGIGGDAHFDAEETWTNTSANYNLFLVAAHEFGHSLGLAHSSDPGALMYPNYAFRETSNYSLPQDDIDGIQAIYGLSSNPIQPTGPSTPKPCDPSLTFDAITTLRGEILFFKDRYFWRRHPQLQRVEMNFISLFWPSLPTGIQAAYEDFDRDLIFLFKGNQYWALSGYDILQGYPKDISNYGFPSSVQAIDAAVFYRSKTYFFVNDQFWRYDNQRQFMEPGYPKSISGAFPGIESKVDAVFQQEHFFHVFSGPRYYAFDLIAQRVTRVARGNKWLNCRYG
# Assay details: MMP-8 OmniMMP peptide assay
# Condition context: OmniMMP substrate peptide
Recorded metric: IC50 (nM)

- Compound: "CC(C)[C@H](C(=O)O)N(CCNC(=O)c1cccc(C(=O)NCCN([C@@H](C(=O)O)C(C)C)S(=O)(=O)c2ccc(-c3ccccc3)cc2)c1)S(=O)(=O)c1ccc(-c2ccccc2)cc1 [Compound 7]"
  Tested target: "MMP-8/neutrophil collagenase (Homo sapiens, UniProt P22894)"
  Value units: "nM"
  Endpoint value: 14.5
- Compound: "CC(C)[C@H](C(=O)O)N(CCNC(=O)c1ccccc1)S(=O)(=O)c1ccc(-c2ccccc2)cc1 [Compound 5]"
  Tested target: "MMP-8/neutrophil collagenase (Homo sapiens, UniProt P22894)"
  Value units: "nM"
  Endpoint value: 331

* * *

# Tested target: human neutrophil-derived MMP-9 monomers (Homo sapiens, UniProt P14780)
# Sequence (P14780 107-707 limits assumed): as the sequence (P14780 107-707 limits assumed) above
# Assay details: Gelatin degradation assay, neutrophil-derived MMP-9 monomers
# Condition context: MMP-9 isolated from human neutrophils, mono

- Cpd smiles: "CC(C)[C@H](C(=O)O)N(CCNC(=O)c1cccc(C(=O)NCCN([C@@H](C(=O)O)C(C)C)S(=O)(=O)c2ccc(-c3ccccc3)cc2)c1)S(=O)(=O)c1ccc(-c2ccccc2)cc1"
  Tested target: "human neutrophil-derived MMP-9 monomers (Homo sapiens, UniProt P14780)"
  IC50 (nM): 43
- Cpd smiles: "CC(C)[C@H](C(=O)O)N(CCNC(=O)c1ccccc1)S(=O)(=O)c1ccc(-c2ccccc2)cc1"
  Tested target: "human neutrophil-derived MMP-9 monomers (Homo sapiens, UniProt P14780)"
  IC50 (nM): 1150

* * *

Parameter 'readout' = IC50; parameter 'system' = UniProtKB P08254.
Sequence (P08254 100-477): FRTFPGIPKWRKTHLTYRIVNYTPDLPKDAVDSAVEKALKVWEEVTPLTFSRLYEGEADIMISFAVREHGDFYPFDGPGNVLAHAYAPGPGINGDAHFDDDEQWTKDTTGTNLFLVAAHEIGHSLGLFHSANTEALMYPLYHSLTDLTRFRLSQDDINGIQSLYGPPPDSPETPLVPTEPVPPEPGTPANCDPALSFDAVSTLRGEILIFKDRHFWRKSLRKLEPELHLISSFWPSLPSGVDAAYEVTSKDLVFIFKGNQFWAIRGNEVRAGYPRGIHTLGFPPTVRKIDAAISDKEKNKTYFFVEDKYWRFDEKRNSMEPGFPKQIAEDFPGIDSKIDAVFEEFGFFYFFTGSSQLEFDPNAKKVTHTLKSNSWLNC

- Compound: "CC(C)[C@H](C(=O)O)N(CCNC(=O)c1cccc(C(=O)NCCN([C@@H](C(=O)O)C(C)C)S(=O)(=O)c2ccc(-c3ccccc3)cc2)c1)S(=O)(=O)c1ccc(-c2ccccc2)cc1 [Compound 7]"
  IC50 / µM: 0.0077
- Compound: "CC(C)[C@H](C(=O)O)N(CCNC(=O)c1ccccc1)S(=O)(=O)c1ccc(-c2ccccc2)cc1 [Compound 5]"
  IC50 / µM: 0.965

* * *

Catalogue of pIC50 values
# Tested target: recombinant human MMP-9 monomers (Homo sapiens)
# Construct: made in house; host or cells: Sf9 insect cells
# Sequence (P14780 107-707 limits assumed): as the sequence (P14780 107-707 limits assumed) above
# Assay details: Gelatin degradation assay, recombinant MMP-9 monomers
# Type: biochemical
# Condition context: recombinant human MMP-9 (Sf9) mono
pIC50: −log10 of the molar value.

- Molecule: "CC(C)[C@H](C(=O)O)N(CCNC(=O)c1ccccc1)S(=O)(=O)c1ccc(-c2ccccc2)cc1 [Compound 5]"
  pIC50: 5.82
- Molecule: "CC(C)[C@H](C(=O)O)N(CCNC(=O)c1cccc(C(=O)NCCN([C@@H](C(=O)O)C(C)C)S(=O)(=O)c2ccc(-c3ccccc3)cc2)c1)S(=O)(=O)c1ccc(-c2ccccc2)cc1 [Compound 7]"
  pIC50: 6.72

* * *

Catalogue of IC50 values
# Tested target: recombinant human MMP-9 mixture (± 70% monomers and ± 30% trimers) (Homo sapiens, UniProt P14780)
# Construct: made in house; host or cells: Sf9 insect cells
# Sequence (P14780 107-707 limits assumed): as the sequence (P14780 107-707 limits assumed) above
# Assay details: Gelatin degradation assay, recombinant MMP-9 mixture
# Type: biochemical
# Condition context: recombinant human MMP-9 (Sf9) mix, best-fit value

- Molecule: "CC(C)[C@H](C(=O)O)N(CCNC(=O)c1cccc(C(=O)NCCN([C@@H](C(=O)O)C(C)C)S(=O)(=O)c2ccc(-c3ccccc3)cc2)c1)S(=O)(=O)c1ccc(-c2ccccc2)cc1 [Compound 7]"
  IC50 [µM]: 0.182
- Molecule: "CC(C)[C@H](C(=O)O)N(CCNC(=O)c1ccccc1)S(=O)(=O)c1ccc(-c2ccccc2)cc1 [Compound 5]"
  IC50 [µM]: 1.41

* * *

# Tested target: recombinant human MMP-9 mixture (± 70% monomers and ± 30% trimers) (Homo sapiens, UniProt P14780)
# Construct: made in house; host or cells: Sf9 insect cells
# Assay details: Fluorogenic peptide (OmniMMP) degradation assay, recombinant MMP-9 mixture
# Assay type: biochemical
# Condition context: recombinant human MMP-9 (Sf9) mix
pIC50: −log10 of the molar value.
Recorded metric: pIC50

- Cpd smiles: "CC(C)[C@H](C(=O)O)N(CCNC(=O)c1cccc(C(=O)NCCN([C@@H](C(=O)O)C(C)C)S(=O)(=O)c2ccc(-c3ccccc3)cc2)c1)S(=O)(=O)c1ccc(-c2ccccc2)cc1"
  Endpoint value: 7.82
- Cpd smiles: "CC(C)[C@H](C(=O)O)N(CCNC(=O)c1ccccc1)S(=O)(=O)c1ccc(-c2ccccc2)cc1"
  Endpoint value: 6.14

* * *

# Tested target: MMP-14/MT1-MMP (Homo sapiens)
# Construct: purchased R & D systems; host or cells: NS0 cells
# Assay details: MMP-14 OmniMMP peptide assay
# Assay type: biochemical
# Condition context: OmniMMP substrate peptide

- Cpd smiles: "CC(C)[C@H](C(=O)O)N(CCNC(=O)c1cccc(C(=O)NCCN([C@@H](C(=O)O)C(C)C)S(=O)(=O)c2ccc(-c3ccccc3)cc2)c1)S(=O)(=O)c1ccc(-c2ccccc2)cc1"
  Value units: "µM"
  IC50: 1.08
- Cpd smiles: "CC(C)[C@H](C(=O)O)N(CCNC(=O)c1ccccc1)S(=O)(=O)c1ccc(-c2ccccc2)cc1"
  Value units: "µM"
  IC50: 14.8

* * *

# Tested target: MMP-2 (Homo sapiens, UniProt P08253)
# Construct: purchased R & D systems; host or cells: CHO cells
# Sequence (P08253 110-660): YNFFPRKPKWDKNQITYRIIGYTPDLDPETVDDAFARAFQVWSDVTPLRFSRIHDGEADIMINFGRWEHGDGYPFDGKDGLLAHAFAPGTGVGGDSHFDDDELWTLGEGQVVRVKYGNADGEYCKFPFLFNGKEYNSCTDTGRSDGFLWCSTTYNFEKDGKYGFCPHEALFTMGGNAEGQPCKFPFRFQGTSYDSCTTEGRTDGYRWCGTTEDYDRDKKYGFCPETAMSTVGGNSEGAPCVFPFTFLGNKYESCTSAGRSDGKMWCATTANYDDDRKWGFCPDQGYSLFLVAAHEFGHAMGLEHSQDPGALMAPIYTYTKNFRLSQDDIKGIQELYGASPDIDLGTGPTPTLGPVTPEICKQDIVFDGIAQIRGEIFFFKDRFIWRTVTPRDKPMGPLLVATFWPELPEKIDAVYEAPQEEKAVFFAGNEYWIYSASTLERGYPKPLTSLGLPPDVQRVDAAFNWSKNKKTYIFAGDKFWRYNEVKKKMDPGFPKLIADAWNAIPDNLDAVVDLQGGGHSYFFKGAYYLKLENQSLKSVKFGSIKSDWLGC
# Assay details: MMP-2 OmniMMP peptide assay
# Type: biochemical
# Condition context: OmniMMP substrate peptide
pIC50: −log10 of the molar value.

- Cpd smiles: "CC(C)[C@H](C(=O)O)N(CCNC(=O)c1ccccc1)S(=O)(=O)c1ccc(-c2ccccc2)cc1"
  Tested target: "MMP-2 (Homo sapiens, UniProt P08253)"
  pIC50: 5.99

* * *

# Tested target: recombinant human MMP-9 monomers (Homo sapiens)
# Construct: made in house; host or cells: Sf9 insect cells
# Assay details: Fluorogenic peptide (OmniMMP) degradation assay, recombinant MMP-9 monomers
# Format: biochemical
# Condition context: recombinant human MMP-9 (Sf9) mono
pIC50: −log10 of the molar value.

- Cpd smiles: "CC(C)[C@H](C(=O)O)N(CCNC(=O)c1ccccc1)S(=O)(=O)c1ccc(-c2ccccc2)cc1"
  Tested target: "recombinant human MMP-9 monomers (Homo sapiens)"
  pIC50: 6.14
- Cpd smiles: "CC(C)[C@H](C(=O)O)N(CCNC(=O)c1cccc(C(=O)NCCN([C@@H](C(=O)O)C(C)C)S(=O)(=O)c2ccc(-c3ccccc3)cc2)c1)S(=O)(=O)c1ccc(-c2ccccc2)cc1"
  Tested target: "recombinant human MMP-9 monomers (Homo sapiens)"
  pIC50: 7.25

Reference source: paper PMC7408547
